target.entity: Muscarinic acetylcholine receptor M3 (Cavia porcellus)
test.name: Antagonist affinity at muscarinic acetylcholine receptor (mAChR) of guinea pig longitudinal ileum (M3)
Format: functional, tissue-based
measured.quantity: pKB

{"columns": ["smiles.representation", "target.entity", "pKB"],
 "data": [
  ["COc1ccccc1CCNCCCCCCNCCCCCCCCNCCCCCCNCCc1ccccc1OC", "Muscarinic acetylcholine receptor M3 (Cavia porcellus)", 5.32],
  ["COc1ccc2cc(C(=O)NCCCNCCCCCCNCCCCCCCCNCCCCCCNCc3ccccc3OC)c(=O)oc2c1", "Muscarinic acetylcholine receptor M3 (Cavia porcellus)", 6.19],
  ["[N-]=[N+]=Nc1ccc(C(=O)NCCCNCCCCCCNCCCCCCCCNCCCCCCN)c(O)c1", "Muscarinic acetylcholine receptor M3 (Cavia porcellus)", 7.35],
  ["CCCC(=O)N[C@H](Cc1ccc(O)cc1)C(=O)NCCCNCCCCCCNCCCCCCNCCCCCCN", "Muscarinic acetylcholine receptor M3 (Cavia porcellus)", 5.16]
]}

====

target.entity: Muscarinic acetylcholine receptor M3 (Cavia porcellus)
test.name: Antagonist affinity at muscarinic acetylcholine receptor (mAChR) of guinea pig longitudinal ileum (M3)
Format: functional, tissue-based
measured.quantity: pKB

{"columns": ["smiles.representation", "pKB"],
 "data": [
  ["CCCC(=O)N[C@H](Cc1ccc(O)cc1)C(=O)NCCCNCCCCCCNCCCCCCNCCCCCCNCc1ccccc1OC", 5.08],
  ["COc1ccccc1CNCCCCCCNCCCCCCNCCCCCCNCCCCCCNCc1ccccc1OC", 5.3],
  ["COc1ccccc1CNCCCCCCNCCCCCCCCCCCCNCCCCCCNCc1ccccc1OC", 5.98],
  ["COc1ccccc1CNCCCCCCNCCCCCCCCNCCCCCCNCc1ccccc1OC", 6.14],
  ["c1ccc(C(CNCCCCCCNCCCCCCCCNCCCCCCNCC(c2ccccc2)c2ccccc2)c2ccccc2)cc1", 5.4],
  ["COc1ccc2cc(C(=O)NCCCNCCCCCCNCCCCCCCCNCCCCCCNCc3cc(I)ccc3OC)c(=O)oc2c1", 5.68]
]}

====

target.entity: Acetylcholine receptor (Torpedo californica) (UniProt P02710+P02712+P02718+P02714)
applied.conditions: Tetronarce californica; Electric organ
Description: Affinity for Torpedo Californica electric organ nAChR.
measured.quantity: pKapp

{"columns": ["compound", "readout.number"],
 "data": [
  ["CCCC(=O)N[C@H](Cc1ccc(O)cc1)C(=O)NCCCNCCCCCCNCCCCCCNCCCCCCN", 4.63],
  ["CCCC(=O)N[C@H](Cc1ccc(O)cc1)C(=O)NCCCNCCCCCCNCCCCCCNCCCCCCNCc1ccccc1OC", 6.12],
  ["COc1ccccc1CNCCCCCCNCCCCCCCCNCCCCCCNCc1ccccc1OC [METHOCTRAMINE]", 6.21],
  ["COc1ccccc1CNCCCNCCCCCCNCCCCCCCCCCCCNCCCCCCNCCCNCc1ccccc1OC", 7.04],
  ["COc1ccccc1CNCc1ccc(CNCCCCCCCCCCCCNCc2ccc(CNCc3ccccc3OC)cc2)cc1", 6.19],
  ["COc1ccccc1CNCCCCCCNCc1ccc(-c2ccc(-c3ccc(CNCCCCCCNCc4ccccc4OC)cc3)cc2)cc1", 6.35],
  ["COc1ccccc1CNCCCCCCNCCCCCCCCCCCCNCCCCCCNCc1ccccc1OC", 5.66],
  ["[N-]=[N+]=Nc1ccc(C(=O)NCCCNCCCCCCNCCCCCCCCNCCCCCCNCCCNC(=O)c2ccc(N=[N+]=[N-])cc2O)c(O)c1", 5.86]
]}

====

Tested on: Muscarinic acetylcholine receptor M2 (Cavia porcellus)
test.name: Antagonist affinity at muscarinic acetylcholine receptor (mAChR) of guinea pig left atrium (M2)
applied.conditions: Cardiac atrium
measured.quantity: pKB

{"columns": ["smiles.representation", "pKB"],
 "data": [
  ["c1ccc(C(CNCCCCCCNCCCCCCCCNCCCCCCNCC(c2ccccc2)c2ccccc2)c2ccccc2)cc1", 5.98],
  ["COc1ccccc1CNCCCCCCNCCCCCCCCCCCCNCCCCCCNCc1ccccc1OC", 7.35],
  ["COc1ccccc1CNCCCNCCCCCCNCCCCCCNCCCCCCNCCCNCc1ccccc1OC", 6.15],
  ["[N-]=[N+]=Nc1ccc(C(=O)NCCCNCCCCCCNCCCCCCCCNCCCCCCN)c(O)c1", 7.01],
  ["CCCC(=O)N[C@H](Cc1ccc(O)cc1)C(=O)NCCCNCCCCCCNCCCCCCNCCCCCCNCc1ccccc1OC", 5.87],
  ["COc1ccccc1CCNCCCCCCNCCCCCCCCNCCCCCCNCCc1ccccc1OC", 6.64]
]}

====

Below, each of the compounds is paired with its reported pKB value.
target.entity: UniProt:Q8VH26
Sequence (Q8VH26 1-587): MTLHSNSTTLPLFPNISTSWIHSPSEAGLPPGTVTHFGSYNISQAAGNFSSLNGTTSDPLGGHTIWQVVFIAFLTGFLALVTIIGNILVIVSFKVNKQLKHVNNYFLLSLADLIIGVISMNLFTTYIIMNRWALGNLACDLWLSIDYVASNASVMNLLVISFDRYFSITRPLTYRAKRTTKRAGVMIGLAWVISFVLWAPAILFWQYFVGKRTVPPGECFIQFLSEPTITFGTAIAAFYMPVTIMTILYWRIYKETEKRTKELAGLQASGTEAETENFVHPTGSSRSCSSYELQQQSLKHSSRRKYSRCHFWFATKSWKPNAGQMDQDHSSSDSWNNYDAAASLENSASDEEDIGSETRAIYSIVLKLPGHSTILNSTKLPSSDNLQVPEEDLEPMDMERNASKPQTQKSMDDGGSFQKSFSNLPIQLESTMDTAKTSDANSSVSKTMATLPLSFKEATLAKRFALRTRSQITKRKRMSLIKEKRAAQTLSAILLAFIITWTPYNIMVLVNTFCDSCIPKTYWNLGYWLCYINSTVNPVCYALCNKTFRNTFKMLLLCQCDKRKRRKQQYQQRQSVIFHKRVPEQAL
test.name: Antagonist affinity at muscarinic acetylcholine receptor (mAChR) of guinea pig longitudinal ileum (M3)
Format: functional, tissue-based

Worked examples follow.
{"columns": ["compound", "measured.quantity", "result"],
 "data": [
  ["COc1ccccc1CNCCCCCCOCCCCCCCCOCCCCCCNCc1ccccc1OC", "pKB", "< 5"],
  ["CCCC(=O)NC(Cc1ccc(O)cc1)C(=O)NCCCNCCCCNCCCN (stereo not given)", "pKB", "< 5"],
  ["COc1ccccc1CN(C)CCCCCCN(C)CCCCCCCCN(C)CCCCCCN(C)Cc1ccccc1OC", "pKB", "< 5"],
  ["COc1ccccc1CNCCCNCCCCCCNCCCCCCNCCCCCCNCCCNCc1ccccc1OC", "pKB", "< 5"]
]}

Could you now consider this next compound?
# query: pKB of entry `COc1ccccc1CNCCCNCCCCCCNCCCCCCCCNCCCCCCNCCCNCc1ccccc1OC` < 6

====

target.entity: Muscarinic acetylcholine receptor M3 (Cavia porcellus)
test.name: Antagonist affinity at muscarinic acetylcholine receptor (mAChR) of guinea pig longitudinal ileum (M3)
Type: functional, tissue-based
measured.quantity: pKB

Which measured pKB value corresponds to `COc1ccccc1CNCCCCCCNCc1ccc(-c2ccc(-c3ccc(CNCCCCCCNCc4ccccc4OC)cc3)cc2)cc1` ? < 5

Next entry: `COc1ccccc1CNCc1ccc(CNCCCCCCCCCCCCNCc2ccc(CNCc3ccccc3OC)cc2)cc1` < 5

Please do the same for `COc1ccccc1CNCCCNCCCCCCNCCCCCCCCCCCCNCCCCCCNCCCNCc1ccccc1OC` as well. < 5

====

Tested on: Muscarinic acetylcholine receptor M2 (Cavia porcellus)
test.name: Antagonist affinity at muscarinic acetylcholine receptor (mAChR) of guinea pig left atrium (M2)
applied.conditions: Cardiac atrium
The following molecules are shown together with reported pKB values.

Some solved cases for reference:
{"columns": ["smiles.representation", "result"],
 "data": [
  ["COc1ccccc1CNCCCNCCCCCCNCCCCCCCCNCCCCCCNCCCNCc1ccccc1OC", "< 6"],
  ["COc1ccccc1CNCCCCCCNCc1ccc(-c2ccc(-c3ccc(CNCCCCCCNCc4ccccc4OC)cc3)cc2)cc1", "< 5"]
]}

Any idea what its pKB is? The molecule is `COc1ccccc1CNCc1ccc(CNCCCCCCCCCCCCNCc2ccc(CNCc3ccccc3OC)cc2)cc1` < 5
